Listing of recorded EC50 by entry.
- assay-target: FP receptor (Felis catus)
- Sequence (A0ABI7XJ69 1-366): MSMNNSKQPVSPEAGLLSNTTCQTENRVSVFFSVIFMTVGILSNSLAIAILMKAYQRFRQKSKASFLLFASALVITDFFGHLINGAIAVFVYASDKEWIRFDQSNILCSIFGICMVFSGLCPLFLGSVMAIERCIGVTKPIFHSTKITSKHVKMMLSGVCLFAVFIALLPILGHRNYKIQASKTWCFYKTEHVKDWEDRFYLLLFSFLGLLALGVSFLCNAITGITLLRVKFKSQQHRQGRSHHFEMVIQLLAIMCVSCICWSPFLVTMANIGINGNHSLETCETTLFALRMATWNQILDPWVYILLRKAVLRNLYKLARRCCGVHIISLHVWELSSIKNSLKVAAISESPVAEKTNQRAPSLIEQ
- run-description: FP activity, contraction of the isolated feline iris sphincter
- details: read-out: EC50 (nM) FP
Numbers only; they are read as nM.

Answered examples (2):
- molecule: "COP(=O)(CCc1ccccc1)OC[C@@H]1[C@@H](C/C=C\\CCCC(=O)O)[C@@H](O)C[C@H]1O (stereo partly drawn) [drawing 10]"
  measure-unit: "nM"
  EC50: 195
- molecule: "COP(=O)(CCc1ccccc1)NC[C@@H]1[C@@H](C/C=C\\CCCC(=O)O)[C@@H](O)C[C@H]1O (stereo partly drawn)"
  measure-unit: "nM"
  EC50: 2140

Read the next record carefully.
Query block: Check the records and state EC50 for COC(=O)CCC/C=C\C[C@@H]1[C@@H](CNP(=O)(CCc2ccccc2)OC)[C@H](O)C[C@@H]1O (stereo partly drawn) [drawing 14]
Result block: 252
